These measurements were taken from patent US20220323406A1.

tested on: ENR+CD organoids; assay: Primary screen: ATP (CellTiter-Glo 3D, CTG) cell number/viability, 2.5-D 384-well ENR+CD organoids; conditions: primary screen, dose 10.00 uM;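 further: compounds given at plating and again on day 3 over a 6-day differentiation from ENR+CV stem-cell-enriched precursors, ATP measured on day 6, plate median as control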
Counter-ions that a name gives are not always drawn.
Examples of compounds with documented Dose.FC.CTG follow.
// units = log2 fold change; emit number, no label

* C=CC(=O)Nc1cccc(Nc2nc(Nc3ccc(Oc4ccnc(C(=O)NC)c4)cc3)ncc2F)c1 | −0.081
* C[C@]12CC[C@@H]3c4ccc(O)cc4C[C@@H](CCCCCCCCC[S+]([O-])CCCC(F)(F)C(F)(F)F)[C@H]3[C@@H]1CC[C@@H]2O (stereo partly shown) | −0.204
* c1ccc(CC2=NCCN2)cc1 [Tolazoline HCl] | −0.208

With those in mind, consider the next compound.
Ask: Which Dose.FC.CTG value is on record for `O=C1C(=O)N(Cc2ccc(Cl)c(Cl)c2)c2ccccc21` ?
Result: −0.158
